# Tested On: human CD40 (human, UniProt P25942 21-193, limits assumed)
# Sequence (P25942 21-193 limits assumed): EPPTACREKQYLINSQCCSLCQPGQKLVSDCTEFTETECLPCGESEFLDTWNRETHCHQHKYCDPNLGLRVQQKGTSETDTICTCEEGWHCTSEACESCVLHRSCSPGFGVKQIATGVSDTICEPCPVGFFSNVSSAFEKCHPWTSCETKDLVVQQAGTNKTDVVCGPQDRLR
# Protocol: Octet
Readings of koff for the listed binders
# unit: s⁻¹ | format: bare number

30A12 (antibody, IgG4, V domains shown, also called 4878-1) VH: EVQLLESGGGLVQPGGSLRLSCAASGFTFSRNAMSWVRQAPGKGLEWVSATGGSGISTYYADSVKGRFTISRDNSKNTLYLQMNSLRAEDTAVYYCARGYSNSWWYFDYWGQGTLVTVSS VL: QSALTQPASVSGSPGQSITISCTGTSSDVGNYNLVSWYQQHPGKAPKLMIFEVNQRPSGVSNRFSGSKSGTTASLTISGLQAADEADYFCCSYTTSSTYVIFGGGTKLTVLG    0.000368

Could you now consider this next binder?
INPUT: For the binder 35F11 (antibody, IgG4, V domains shown, also called 4868-1) VH: QVQLVESGGGVVQPGRSLRLSCAASGFTLSSYGMHWVRQAPGKGLEWVAVIWYDGSNKYYADSVKGRVTISRDNSKNTLYLQMNSLRAEDTAVYYCTRDGRNYVYFDNWGQGTLVTVSS VL: QSALTQPRSVSGSPGQSVTISCTGTSSDVGGYIFVSWYQQHPGKAPKLMIYDVSKRPSGVPDRFSGSKSVNTASLTISGLQAEDETDYYCCSYAGNYTYVFGTGTKVTVLG , report koff.
OUTPUT: 0.00031
